Entry source: patent US20240309095A1

assayed.system: T1, human B7-H4 (purified monomeric recombinant human protein, ACRO biosystems) (human, UniProt Q7Z7D3 29-258, limits assumed, chemically biotinylated (EZ-Link NHS-LC-Biotin) in the yeast display and competition experiments; non-biotinylated in SPR)
T1 construct: Bought recombinant monomeric protein; also called B7x; B7S1
T1 sequence: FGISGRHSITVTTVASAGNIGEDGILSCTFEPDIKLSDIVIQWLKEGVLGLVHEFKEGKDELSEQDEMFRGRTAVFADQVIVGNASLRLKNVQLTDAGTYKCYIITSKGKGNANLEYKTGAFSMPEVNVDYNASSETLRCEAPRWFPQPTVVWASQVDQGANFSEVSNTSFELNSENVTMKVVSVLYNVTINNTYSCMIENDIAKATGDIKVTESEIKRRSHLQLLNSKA
test.summary: SPR (Carterra LSA); scFv-Fc captured on anti-human IgG Fc, antigen injected
Recorded koff values for a group of binders are listed next.
quantity.kind: koff (s⁻¹)

>>> recorded_measurement("A09 scFv-Fc (scFv, V domains shown, Tested as scFv-Fc fusion (human IgG1 Fc, vector pDNL9) in crude yeast supernatant; Combo 2 library) VH: EVQLVESGGGVVQPGRSLRLSCAASGFTFSSRSMNWVRQAPGKGLEWVSAISGSGLTSYYADSVKGRFTISRDNSKNTLYLQMNSLRAEDTAVYYCARKRWYGMDVWGQGTTVTVSS VL: SYELTQPPSVSVAPGKTARITCGGNNIGSKSVHWYQQKPGQAPVLVVYDDSDRPSGIPERFSGSNSGNTATLTISRVEAGDEADYYCQVWDRGMIFGTGTKLTVL")
"1.1e-05"
>>> recorded_measurement("B03 scFv-Fc (scFv, V domains shown, Tested as scFv-Fc fusion (human IgG1 Fc, vector pDNL9) in crude yeast supernatant; Combo 1 library) VH: EVQLVESGGGVVQPGRSLRLSCAASGFTFGDRAMNWVRQAPGKGLEWVSAISGSGSGTYYADSVKGRFTISRDNSKNTLYLQMNSLRAEDTAVYYCARKRWYGMDVWGQGTTVTVSS VL: SYELTQPPSVSVAPGKTARITCGGNNIGMKSVHWYQQKPGQAPVLVVYDDSDRPSGIPERFSGSNSGNTATLTISRVEAGDEADYYCQVWDRGMIFGTGTKLTVL")
"2.1e-05"
